tested on: MDA-MB-231 (breast cancer); test: Antiproliferative activity (CCK-8 cell viability), MDA-MB-231; type: cell-based; details: Homo sapiens, Compound concentration: 10 μM, 72 h, read-out: Antiproliferative activity in cancerous cells, MDA-MB-231 (inhibition of cell growth)
Listing: inhibition at 10 µM of selected compounds

Past entries and their recorded results:
CC1=C(CC(=O)O)c2cc(F)ccc2/C1=C/c1ccc(Oc2ccc(Cl)cc2)cc1	< 30%
CC1=C(CC(=O)O)c2cc(F)ccc2/C1=C\c1ccc(Sc2nc3ccccc3[nH]2)cc1	30 to 50%

Shifting focus to the compound that follows.
Provide the documented inhibition at 10 µM with MDA-MB-231 (breast cancer) as the system for COc1ccc2c(c1)C(CC(=O)O)=C(C)/C2=C/c1ccc(Oc2ccc(F)c(F)c2)cc1
≥ 50%

###

System: A431 (epidermoid carcinoma)
Experiment: Antiproliferative activity (CCK-8 cell viability), A431
Assay type: cell-based
Details: Homo sapiens, A-431, Compound concentration: 10 μM, 72 h, read-out: Antiproliferative activity in cancerous cells, A431 (inhibition of cell growth)
Description: The antiproliferative activity of a compound was determined in the following cell lines: MDA-MB-231 (breast cancer), HepG2 (liver cancer), SW480 (colon cancer), B16F10 (malignant melanoma), A431 (epidermoid carcinoma), A549 (lung adenocarcinoma), and HeLa (cervical cancer). […] Briefly cells were seeded in a 96-well plate at a density of 2,000-5,000 cells/well. […] After incubation at 37° C. for 4 h, the absorbance value of each well was determined using a multi-well plate reader at 450 nm. […]
Listing: inhibition at 10 µM of selected molecules

CC1=C(CC(=O)O)c2cc(Cl)ccc2/C1=C\c1ccc(CCCc2ccc(F)cc2)cc1	≥ 50%
O=C(O)CC1=C(Cc2ccc(Oc3ccc(F)cc3)cc2)/C(=C/c2ccc(F)cc2)c2ccc(F)cc21	≥ 50%
CC1=C(CC(=O)O)c2cc(F)ccc2/C1=C\c1cccc(C(O)c2ccccc2)c1 (centres unmarked)	30 to 50%
CC1=C(CC(=O)O)c2cc(F)ccc2/C1=C\c1ccc(CCCc2ccc(Cl)cc2)cc1	≥ 50%
CC1=C(CC(=O)O)c2cc(F)ccc2/C1=C/c1cccc(COc2ccc(F)c(F)c2)c1	≥ 50%
CC1=C(CC(=O)O)c2cc(Cl)ccc2/C1=C/c1ccc(Oc2ccc(F)c(F)c2)cc1	30 to 50%

Provide the documented inhibition at 10 µM with A431 (epidermoid carcinoma) as the system for CC1=C(CC(=O)O)c2cc(F)ccc2/C1=C\c1ccc(COc2ccc(Cl)cc2)cc1Br
≥ 50%

Provide the documented inhibition at 10 µM with A431 (epidermoid carcinoma) as the system for CC1=C(CC(=O)O)c2cc(F)ccc2/C1=C\c1ccc(Oc2ccc(Cl)c(F)c2)cc1
≥ 50%

Provide the documented inhibition at 10 µM with A431 (epidermoid carcinoma) as the system for CC1=C(CC(=O)O)c2ccc(Cl)cc2/C1=C\c1ccc(Oc2ccc(F)cc2)cc1
≥ 50%

Provide the documented inhibition at 10 µM with A431 (epidermoid carcinoma) as the system for CC1=C(CC(=O)O)c2cc(C)ccc2/C1=C\c1ccc(COCc2ccc(Cl)cc2)cc1
≥ 50%

Provide the documented inhibition at 10 µM with A431 (epidermoid carcinoma) as the system for CC1=C(CC(=O)O)c2cc(F)ccc2/C1=C\c1cccc(Oc2ccc(F)c(F)c2)c1
30 to 50%

Provide the documented inhibition at 10 µM with A431 (epidermoid carcinoma) as the system for CCc1ccc2c(c1)/C(=C\c1ccc(COCc3ccc(F)cc3)cc1)C(C)=C2CC(=O)O
≥ 50%

Provide the documented inhibition at 10 µM with A431 (epidermoid carcinoma) as the system for COc1ccc2c(c1)C(CC(=O)O)=C(C)/C2=C/c1ccc(COc2ccc(F)cc2)cc1
30 to 50%

Provide the documented inhibition at 10 µM with A431 (epidermoid carcinoma) as the system for CCc1ccc2c(c1)C(CC(=O)O)=C(C)/C2=C/c1ccc(COCc2ccc(Cl)cc2)cc1
≥ 50%
